Origin of values: the supplement of paper PMC5998384

- System: HeLa Kyoto;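 also: synchronized HeLa Kyoto cells (double thymidine block for G1/S, nocodazole release for mitosis), protein amounts in NP-40 versus SDS lysates quantified by mass spectrometry, three biological replicates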
- assay.remarks: solubility change mitosis vs G1/S (difference of NP-40 vs SDS log2 ratios) (log2 ratio difference); higher = more soluble in mitosis
For each record, write down the corresponding solubility change mitosis (log2).

Recall and state the measured solubility change mitosis (log2) for MAGSSEEAPDYGRGVVIMDDWPGYDLNLFTYPQHYYGDLEYVLIPHGIIVDRIERLAKDIMKDIGYSDIMVLCVLKGGYKFCADLVEHLKNISRNSDRFVSMKVDFIRLKSYRNDQSMGEMQIIGGDDLSTLAGKNVLIVEDVVGTGRTMKALLSNIEKYKPNMIKVASLLVKRTSRSDGFRPDYAGFEIPNLFVVGYALDYNEYFRDLNHICVINEHGKEKYRV [PRTFDC1] .
-0.113

State its solubility change mitosis (log2) for this sequence: MAWWKAWIEQEGVTVKSSSHFNPDPDAETLYKAMKGIGTNEQAIIDVLTKRSNTQRQQIAKSFKAQFGKDLTETLKSELSGKFERLIVALMYPPYRYEAKELHDAMKGLGTKEGVIIEILASRTKNQLREIMKAYEEDYGSSLEEDIQADTSGYLERILVCLLQGSRDDVSSFVDPALALQDAQDLYAAGEKIRGTDEMKFITILCTRSATHLLRVFEEYEKIANKSIEDSIKSETHGSLEEAMLTVVKCTQNLHSYFAERLYYAMKGAGTRDGTLIRNIVSRSEIDLNLIKCHFKKMYGKTLSSMIMEDTSGDYKNALLSLVGSDP [ANXA8L1]
-0.077

Check the records and state solubility change mitosis (log2) for MSGNGNAAATAEENSPKMRVIRVGTRKSQLARIQTDSVVATLKASYPGLQFEIIAMSTTGDKILDTALSKIGEKSLFTKELEHALEKNEVDLVVHSLKDLPTVLPPGFTIGAICKRENPHDAVVFHPKFVGKTLETLPEKSVVGTSSLRRAAQLQRKFPHLEFRSIRGNLNTRLRKLDEQQEFSAIILATAGLQRMGWHNRVGQILHPEECMYAVGQGALGVEVRAKDQDILDLVGVLHDPETLLRCIAERAFLRHLEGGCSVPVAVHTAMKDGQLYLTGGVWSLDGSDSIQETMQATIHVPAQHEDGPEDDPQLVGITARNIPRGPQLAAQNLGISLANLLLSKGAKNILDVARQLNDAH [HMBS]
-0.0671
